- experiment notes: label from the status in PepcDB records

residues	protein production
MALINLNHTDDGYDAYDACPARSVQQETAVGAGAQILLLALLGTAIGMGTAGWLTGLAFAFASWAVLSRALHRSRLPSFGPANRVTLGRATLVGGVTALVADSFRSAPPLSLLVGLTAVALILDGVDGRVARRTGTSTPLGARFDMEVDAFLILVLSVYVALDLGPWVLLIGGMRYVFVAAARVWPWLTAPLPPSTARKTVAALQGVLLLLAGAELLPRPGNAGVVAVALGLLVWSFGRDVRWLWRRSRVPAAPVTAVRELVAQ	failed
MTMRVVTAPAEPPQGASHVAPSFTRMDTSVLGRWWWTVDRPMLGAVALLIAAGVFLILAAGPPAAGRIGAQTYHFVQRQFLFVPVAGVLVIAVSLLPVLWVRRIAVLLFALFMVLLLGTLFVSSDIKGASRWIAIGPFALQPSEFVKPTFAVVTAWMFASARTQDRFPGNLIAMLLMAVVGALLVAQPDFGMTMVVACVWGTQFFLAGLSLVWVVLLAAVGMIGAVIAYFALPHVQSRVDRFLDPASGDQYQIRQSMKAFMEGGLFGRGPGEGRVKEFLPDAHTDFIFAVAGEEFGLFLCLTIVALFAFLIIRSAIRLRREQNLFVLIAAGGLLTQLGLQALINMASSLSLIPTKGMTLPFISYGGSSLLSTAVAMGMVLALTRRRAHGERT	failed
